Target: T1, DFNB31_1, Q9P202
T1 sequence (Q9P202 135-233, limits assumed, looked up): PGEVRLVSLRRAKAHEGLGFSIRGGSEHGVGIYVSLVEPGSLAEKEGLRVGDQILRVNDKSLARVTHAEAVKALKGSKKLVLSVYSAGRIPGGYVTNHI
Assay: holdup assay
Set-up: key: below the threshold = too weak to quantify, mostly under pKd 3.1 to 4
Details: plain residues with an end cap or a label only (N-terminal biotin on a linker: ahx)
attribute-measured: pKd

Below, each entry is followed by its recorded pKd result.
KEYDDELTFF [USH1C, Q9Y6N9]    below the threshold
YNSFLSVTTV [PDZRN3, Q9UPQ7]    below the threshold
HSATSVHTSV [MTMR1, Q13613]    3.66
PKMKLNETSF [SHKBP1, Q8TBC3]    3.66
SKKNELFSNL [NHERF1, O14745]    below the threshold

Now examine the next entry.
Input SAPATLSSRA [PDLIM2, Q96JY6] . Output pKd: below the threshold
